Assay: In vitro microsomal stability assay
Conditions: human, s9, NADPH-dependent T1/2, Human, 1 μM, 37 °C
PROPERTY: half-life at 1 μM (h)
Form entry: value (h) — number only.

What does the data say about its half-life at 1 μM? Entry: COc1ccc2c(c1)[C@]13CCCC[C@@H]1[C@H](C2)N(C)CC3 [Dextromethorphan, reference compound]
1.58

---

Here the recorded pIC50 is given for each entry.
Tested on: THP-1 cell line infected with Mtb
Experiment: Intracellular activity assay, luminescence
Format: cell-based, Mycobacterium tuberculosis
Conditions: Mycobacterium tuberculosis; Mtb-infected THP-1 cells, 72 h; read-out: IC50 intracell
Recall that pIC50 is obtained by taking minus log10 of the concentration measured in molar.

COMPOUND	pIC50
CCOC(=O)c1cc(C(=O)c2ccc(Cl)cc2)n2ccc(-c3cc[n+](CC(=O)c4cccc(OC)c4)cc3)cc12	4.96
CCOC(=O)c1cc(C(=O)c2ccc(Cl)cc2)n2ccc(-c3cc[n+](CC(=O)c4ccc(C)cc4)cc3)cc12	5.00
CCOC(=O)c1cc(C(=O)c2ccccc2)n2ccc(-c3cc[n+](CC(=O)c4ccc(C)cc4)cc3)cc12.[Br-]	5.28

What does the data say about its pIC50? Entry: NNC(=O)c1ccncc1 [Isoniazid, reference compound]
6.74

What does the data say about its pIC50? Entry: `CCOC(=O)c1cc(C(=O)c2ccc(Br)cc2)n2ccc(-c3cc[n+](CC(=O)c4cccc(OC)c4)cc3)cc12`
4.89

---

Biological target: CYP2D6 (Homo sapiens)
Sequence (P10635 whole entry): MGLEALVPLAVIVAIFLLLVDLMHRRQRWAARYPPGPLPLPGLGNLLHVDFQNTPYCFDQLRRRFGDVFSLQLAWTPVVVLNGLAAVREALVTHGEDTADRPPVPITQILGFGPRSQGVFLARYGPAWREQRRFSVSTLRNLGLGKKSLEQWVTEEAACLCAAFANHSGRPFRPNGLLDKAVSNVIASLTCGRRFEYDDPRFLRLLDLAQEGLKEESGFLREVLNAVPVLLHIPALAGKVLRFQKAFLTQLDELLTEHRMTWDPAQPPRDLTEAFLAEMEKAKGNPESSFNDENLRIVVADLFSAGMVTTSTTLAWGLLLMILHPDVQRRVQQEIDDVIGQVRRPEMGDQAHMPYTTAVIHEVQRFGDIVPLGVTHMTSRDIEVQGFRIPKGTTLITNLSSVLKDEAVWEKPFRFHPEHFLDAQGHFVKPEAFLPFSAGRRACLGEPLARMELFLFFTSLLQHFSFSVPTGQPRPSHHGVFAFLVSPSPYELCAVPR
PROPERTY: IC50

What does the data say about its IC50? Entry: `CCOC(=O)c1cc(C(=O)c2ccc(Cl)cc2)n2ccc(-c3cc[n+](CC(=O)c4ccc(C)cc4)cc3)cc12`
> 5 µM

---

Assay: Plasma protein binding by equilibrium dialysis
Conditions: human, human plasma, Mean plasma fraction unbound, 5 µM, 4 h at 37 °C
PROPERTY: fraction unbound at 4 h, 5 µM
Field format: numeric only.

What does the data say about its fraction unbound at 4 h, 5 µM? Entry: `CCOC(=O)c1cc(C(=O)c2ccc(Cl)cc2)n2ccc(-c3cc[n+](CC(=O)c4ccc(C)cc4)cc3)cc12`
0.0035

---

Test: in vitro
Conditions: human, s9, NADPH-dependent T1/2
PROPERTY: half-life at 1 μM (min)
Form entry: value (min) — number only.

What does the data say about its half-life at 1 μM? Entry: `CCOC(=O)c1cc(C(=O)c2ccc(Cl)cc2)n2ccc(-c3cc[n+](CC(=O)c4ccc(C)cc4)cc3)cc12`
6.3

---

Target: CYP3A4 (Homo sapiens, UniProt P08684)
Construct: Compounds were incubated with human liver; from tissue; host or cells: human liver microsomes
Sequence (P08684 whole entry): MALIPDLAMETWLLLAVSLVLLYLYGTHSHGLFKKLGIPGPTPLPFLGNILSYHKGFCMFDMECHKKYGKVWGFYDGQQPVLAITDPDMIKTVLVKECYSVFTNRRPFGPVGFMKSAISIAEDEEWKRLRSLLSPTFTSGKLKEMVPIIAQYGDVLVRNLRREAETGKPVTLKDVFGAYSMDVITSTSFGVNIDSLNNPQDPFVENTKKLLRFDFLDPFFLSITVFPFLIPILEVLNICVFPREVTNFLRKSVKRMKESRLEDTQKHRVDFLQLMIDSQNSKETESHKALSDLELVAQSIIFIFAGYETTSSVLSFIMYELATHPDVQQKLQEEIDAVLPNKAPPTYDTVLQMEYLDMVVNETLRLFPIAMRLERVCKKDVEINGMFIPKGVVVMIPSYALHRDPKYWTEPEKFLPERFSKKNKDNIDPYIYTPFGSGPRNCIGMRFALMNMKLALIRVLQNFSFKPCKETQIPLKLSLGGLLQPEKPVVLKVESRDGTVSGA
Assay: Cytochrome P450 inhibition in human liver microsomes
Format: in vitro ADME
Settings: probe substrate testosterone, read-out: IC50 CYP3A4-Testosterone
PROPERTY: IC50
Don't forget the unit after the number, please.

Query IC50 on CYP3A4 (Homo sapiens, UniProt P08684) for CCOC(=O)c1cc(C(=O)c2ccc(Cl)cc2)n2ccc(-c3cc[n+](CC(=O)c4ccc(C)cc4)cc3)cc12 [Compound 6i]
81 nM

---

Assay: Caco-2 permeability assay
Conditions: human, Caco-2
PROPERTY: Papp B→A (×10⁻⁶ cm/s)
Form entry: value (×10⁻⁶ cm/s) — number only.

What does the data say about its Papp B→A? Entry: `CCOC(=O)c1cc(C(=O)c2ccc(Cl)cc2)n2ccc(-c3cc[n+](CC(=O)c4ccc(C)cc4)cc3)cc12`
1.3

---

Test system: Mtb H37Rv
Experiment: LORA parallel plates, oxygen-deprived bacteria incubated under aerobic conditions (normal oxygen)
Assay type: cell-based, Mycobacterium tuberculosis
Details: Mycobacterium tuberculosis, H37RV
# note: exactly 6 µM is not below, so it is F; use T for IC50 strictly under it

COMPOUND	TESTED_ON	CLASS_NAME
CCOC(=O)c1cc(C(=O)c2ccc(Cl)cc2)n2ccc(-c3cc[n+](CC(=O)c4cccc(OC)c4)cc3)cc12	Mtb H37Rv	F
CCOC(=O)c1cc(C(=O)c2ccc(Br)cc2)n2ccc(-c3cc[n+](CC(=O)c4cccc(OC)c4)cc3)cc12	Mtb H37Rv	F
CCOC(=O)c1cc(C(=O)c2ccccc2)n2ccc(-c3cc[n+](CC(=O)c4ccc(C)cc4)cc3)cc12.[Br-]	Mtb H37Rv	F
CCOC(=O)c1cc(C(=O)c2ccc(Cl)cc2)n2ccc(-c3cc[n+](CC(=O)c4ccc(C)cc4)cc3)cc12	Mtb H37Rv	F

Lab note: IC50 threshold 6 µM. Does this compound come in strictly under it? Cc1ncc([N+](=O)[O-])n1CCO [Metronidazole, reference compound]
F

Lab note: IC50 threshold 6 µM. Does this compound come in strictly under it? CO[C@H]1/C=C/O[C@@]2(C)Oc3c(C)c(O)c4c(O)c(c(/C=N/N5CCN(C)CC5)c(O)c4c3C2=O)NC(=O)/C(C)=C\C=C\[C@H](C)[C@H](O)[C@@H](C)[C@@H](O)[C@@H](C)[C@H](OC(C)=O)[C@@H]1C [Rifampicin, reference compound]
T

---

Here the recorded melting point is given for each entry.

Worked examples, 3 compounds total:
CCOC(=O)c1cc(C(=O)c2ccc(Br)cc2)n2ccc(-c3cc[n+](CC(=O)c4ccc(C)cc4)cc3)cc12.[Br-] 283 to 284 °C
CCOC(=O)c1cc(C(=O)c2ccc(Br)cc2)n2ccc(-c3cc[n+](CC(=O)c4cccc(OC)c4)cc3)cc12 256 to 259 °C
CCOC(=O)c1cc(C(=O)c2ccccc2)n2ccc(-c3cc[n+](CC(=O)c4cccc(OC)c4)cc3)cc12 255 to 256 °C

With those in mind, consider the next compound.
What does the data say about its melting point? Entry: `CCOC(=O)c1cc(C(=O)c2ccc(Cl)cc2)n2ccc(-c3cc[n+](CC(=O)c4cccc(OC)c4)cc3)cc12`
252 to 254 °C

---

Tested on: Mycobacterium avium
Test: MIC against nontuberculous mycobacteria (Alamar blue)
Type: cell-based
Conditions: Mycobacterium avium; M. avium
PROPERTY: MIC (µM)
Form entry: value (µM) — number only.

Worked examples, 4 compounds total:
COMPOUND	MIC, µM
CCOC(=O)c1cc(C(=O)c2ccc(Cl)cc2)n2ccc(-c3cc[n+](CC(=O)c4ccc(C)cc4)cc3)cc12 [Compound 6i]	50
CCOC(=O)c1cc(C(=O)c2ccccc2)n2ccc(-c3cc[n+](CC(=O)c4ccc(C)cc4)cc3)cc12.[Br-] [Compound 6a]	50
CCOC(=O)c1cc(C(=O)c2ccc(Br)cc2)n2ccc(-c3cc[n+](CC(=O)c4cccc(OC)c4)cc3)cc12 [Compound 6h]	200
CO[C@H]1/C=C/O[C@@]2(C)Oc3c(C)c(O)c4c(O)c(c(/C=N/N5CCN(C)CC5)c(O)c4c3C2=O)NC(=O)/C(C)=C\C=C\[C@H](C)[C@H](O)[C@@H](C)[C@@H](O)[C@@H](C)[C@H](OC(C)=O)[C@@H]1C [Rifampicin, reference compound]	0.098

With those in mind, consider the next compound.
What does the data say about its MIC? Entry: CCOC(=O)c1cc(C(=O)c2ccc(Cl)cc2)n2ccc(-c3cc[n+](CC(=O)c4cccc(OC)c4)cc3)cc12 [Compound 6d]
200

---

Tested on: Mycobacterium tuberculosis H37Rv
Assay: Primary screen (Cycle 1): MIC, IC50, IC90 under aerobic conditions
Type: cell-based
Conditions: Mycobacterium tuberculosis; M. tuberculosis H37Rv, aerobic conditions, primary screen
PROPERTY: pIC50
Recall that pIC50 is obtained by taking minus log10 of the concentration measured in molar.

What does the data say about its pIC50? Entry: CCOC(=O)c1cc(C(=O)c2ccccc2)n2ccc(-c3cc[n+](CC(=O)c4cccc(OC)c4)cc3)cc12 [Compound 6b]
4.41

What does the data say about its pIC50? Entry: CCOC(=O)c1cc(C(=O)c2ccc(C)cc2)n2ccc(-c3cc[n+](CC(=O)c4ccc([N+](=O)[O-])cc4)cc3)cc12 [Compound 6k]
3.70

---

Test: Plasma protein binding by equilibrium dialysis
Details: human, human plasma, dialysed against PBS in a RED device
PROPERTY: recovery at 4 h, 5 µM
Don't forget the unit after the number, please.

What does the data say about its recovery at 4 h, 5 µM? Entry: `CCOC(=O)c1cc(C(=O)c2ccc(Cl)cc2)n2ccc(-c3cc[n+](CC(=O)c4ccc(C)cc4)cc3)cc12`
48.7%

---

Molecular target: CYP3A4 (Homo sapiens, UniProt P08684)
Construct: Compounds were incubated with human liver; from tissue; host or cells: human liver microsomes
Test: Cytochrome P450 inhibition in human liver microsomes
Assay type: in vitro ADME
Settings: probe substrate midazolam, read-out: IC50 CYP3A4-Midazolam
PROPERTY: IC50 (nM)
Form entry: value (nM) — number only.

What does the data say about its IC50? Entry: CCOC(=O)c1cc(C(=O)c2ccc(Cl)cc2)n2ccc(-c3cc[n+](CC(=O)c4ccc(C)cc4)cc3)cc12 [Compound 6i]
480
